target: human IL12Rβ1, cell-expressed (human, UniProt P42701 24-662); test: cell-based or functional assay
// assign 1 (yes) if IC50, IFNγ release, PBMC D840 falls strictly below 0.5 nM, else 0 (no) (ties count as 0 (no))

Lab log: compare recorded IC50, IFNγ release, PBMC D840 with 0.5 nM; is it strictly lower for CD4#8-35GS-IL12Rb1#30 (bispecific antibody, also called BI#40; T023200040) EVQLVESGGGSVQPGGSLTLSCGTSGRTFNVMGWFRQAPGKEREFVAAVRWSSTGIYYTQYADSVKSRFTISRDNAKNTVYLEMNSLKPEDTAVYYCAADTYNSNPARWDGYDFRGQGTLVTVSSGGGGSGGGGSGGGGSGGGGSGGGGSGGGGSGGGGSEVQLVESGGGLVQTGGSLRLSCAASGRTPRLVAMGWFRQTPGKEREFVGEIILSKGFTYYADSVKGRFTISRVNAKNTITMYLQMNSLKSEDTAVYYCAGRQNWSGSPARTNEYEYWGQGTLVTVSS ?
1 (yes)

Moving on to CD4#8-35GS-IL12Rb1#31 (bispecific antibody, also called BI#41; T023200041) EVQLVESGGGSVQPGGSLTLSCGTSGRTFNVMGWFRQAPGKEREFVAAVRWSSTGIYYTQYADSVKSRFTISRDNAKNTVYLEMNSLKPEDTAVYYCAADTYNSNPARWDGYDFRGQGTLVTVSSGGGGSGGGGSGGGGSGGGGSGGGGSGGGGSGGGGSEVQLVESGGGLVQTGGSLRLSCAASGRTPSIIAMGWFRQTPGKEREFVGEIILSKGFTYYADSVKGRFTISRANAKNTITMYLQMNSLKSEDTAVYYCAARQNWSGNPTRTNEYEYWGQGTLVTVSS
0 (no)

Likewise for IL12Rb1#31-35GS-CD4#8 (bispecific antibody, also called BI#47; T023200047) EVQLVESGGGLVQTGGSLRLSCAASGRTPSIIAMGWFRQTPGKEREFVGEIILSKGFTYYADSVKGRFTISRANAKNTITMYLQMNSLKSEDTAVYYCAARQNWSGNPTRTNEYEYWGQGTLVTVSSGGGGSGGGGSGGGGSGGGGSGGGGSGGGGSGGGGSEVQLVESGGGSVQPGGSLTLSCGTSGRTFNVMGWFRQAPGKEREFVAAVRWSSTGIYYTQYADSVKSRFTISRDNAKNTVYLEMNSLKPEDTAVYYCAADTYNSNPARWDGYDFRGQGTLVTVSS ?
0 (no)

And the next one, IL12Rb1#30-35GS-CD4#8 (bispecific antibody, also called BI#46; T023200046) EVQLVESGGGLVQTGGSLRLSCAASGRTPRLVAMGWFRQTPGKEREFVGEIILSKGFTYYADSVKGRFTISRVNAKNTITMYLQMNSLKSEDTAVYYCAGRQNWSGSPARTNEYEYWGQGTLVTVSSGGGGSGGGGSGGGGSGGGGSGGGGSGGGGSGGGGSEVQLVESGGGSVQPGGSLTLSCGTSGRTFNVMGWFRQAPGKEREFVAAVRWSSTGIYYTQYADSVKSRFTISRDNAKNTVYLEMNSLKPEDTAVYYCAADTYNSNPARWDGYDFRGQGTLVTVSS ?
1 (yes)

Another binder to look at: IL12Rb1#31: 148F09 (VHH, also called IL12Rβ1#31; LG148F09) VHH: EVQLVESGGGLVQTGGSLRLSCAASGRTPSIIAMGWFRQTPGKEREFVGEIILSKGFTYYADSVKGRFTISRANAKNTITMYLQMNSLKSEDTAVYYCAARQNWSGNPTRTNEYEYWGQGTLVTVSS
0 (no)
